Data credit: ChEMBL document CHEMBL2321652

test: Plasma clearance in rat at 2 mg/kg, iv; assay type: ADME, organism-based; design: dose 2 mg/kg, route intravenous
observed property: clearance (mL/min/kg)

// known answers, use as guide
input_smiles=COC(=O)N[C@H](C(=O)N[C@@H](Cc1ccc(-c2ccc(OC)nc2)cc1)[C@@H](O)C[C@@H](Cc1ccccc1F)C(=O)N[C@H]1c2cc(C)ccc2OC[C@H]1O)C(C)(C)C measurement_units=mL/min/kg readout_value=46.7
input_smiles=COC(=O)N[C@H](C(=O)N[C@@H](Cc1ccc(-c2ccc(OC)nc2)cc1)[C@@H](O)C[C@@H](Cc1ccccc1F)C(=O)N[C@H]1c2cc(C)cc(F)c2OC[C@H]1O)C(C)(C)C measurement_units=mL/min/kg readout_value=83.3

(P) COC(=O)N[C@H](C(=O)N[C@@H](Cc1ccc(-c2ccc(N(C)C)nc2)cc1)[C@@H](O)C[C@@H](Cc1ccccc1F)C(=O)N[C@H]1[C@H](C)CCC[C@H]1O)C(C)(C)C
(Q) COC(=O)N[C@H](C(=O)N[C@@H](Cc1ccc(-c2ccc(OC)nc2)cc1)[C@@H](O)C[C@@H](Cc1ccccc1F)C(=O)N[C@H]1c2cc(F)cc(Cl)c2OC[C@H]1O)C(C)(C)C
(R) COC(=O)N[C@H](C(=O)N[C@@H](Cc1ccc(-c2ccc(OC)nc2)cc1)[C@@H](O)C[C@@H](Cc1ccccc1F)C(=O)N[C@H]1c2cc(Cl)ccc2OC[C@H]1O)C(C)(C)C
Sort these molecules on clearance so the largest reading comes first. Thanks in advance for listing the labels in the requested order.
P, Q, R

(A) COC(=O)N[C@H](C(=O)N[C@@H](Cc1ccc(-c2ccc(OC)nc2)cc1)[C@@H](O)C[C@@H](Cc1ccccc1F)C(=O)N[C@H]1c2cccc(F)c2OC[C@H]1O)C(C)(C)C
(B) COC(=O)N[C@H](C(=O)N[C@@H](Cc1ccc(-c2ccc(OC)nc2)cc1)[C@@H](O)C[C@@H](Cc1ccccc1F)C(=O)N[C@H]1c2cc(F)ccc2OC[C@H]1O)C(C)(C)C
Between the entries labeled A and B , whose measured clearance is lower? Which one? Tell me its label.
B
(B: 35 mL/min/kg, A: 88.3 mL/min/kg)

(1) COC(=O)N[C@H](C(=O)N[C@@H](Cc1ccc(-c2ccc(OC)nc2)cc1)[C@@H](O)C[C@@H](Cc1ccccc1F)C(=O)N[C@H]1CCCC[C@H]1O)C(C)(C)C
(2) COC(=O)N[C@H](C(=O)N[C@@H](Cc1ccc(-c2ccc(OC)nc2)cc1)[C@@H](O)C[C@@H](Cc1ccccc1Cl)C(=O)N[C@H]1c2cc(Cl)ccc2OC[C@H]1O)C(C)(C)C
Between the entries labeled 1 and 2 , whose measured clearance is lower? Which one? Tell me its label.
2

* * *

experiment: Bioavailability in rat at 50 mg/mL formulated with 12.5 mg/mL of poloxamer 338 and sucrose in water administered intramuscularly measured after 1 month; assay type: ADME, organism-based; details: in vivo, im
observed property: bioavailability at 1 month

The reported bioavailability at 1 month of the compound COC(=O)N[C@H](C(=O)N[C@@H](Cc1ccc(-c2ccc(OC)nc2)cc1)[C@@H](O)C[C@@H](Cc1ccccc1F)C(=O)N[C@H]1c2ccsc2CC[C@H]1O)C(C)(C)C was > 100%

* * *

assay: Bioavailability in rat at 100 mg/mL formulated with 25 mg/mL of polysorbate 20 and 9 mg/mL of NaCl in water administered intramuscularly measured after 1 month; format: ADME, organism-based; details: in vivo, im
observed property: bioavailability at 1 month

The reported bioavailability at 1 month of the molecule COC(=O)N[C@H](C(=O)N[C@@H](Cc1ccc(-c2ccc(OC)nc2)cc1)[C@@H](O)C[C@@H](Cc1ccccc1F)C(=O)N[C@H]1[C@H](C)CCC[C@H]1O)C(C)(C)C was > 100%

* * *

test system: Human immunodeficiency virus 1; test: Antiviral activity against Human immunodeficiency virus 1 3B clinical isolate harboring L10I/I13V/M46I/I50V/L63P/L76V protease mutant infected in human MT4 cells assessed as inhibition of viral replication; assay type: functional, organism-based
observed property: pEC50
// pEC50: -log10(molar conc.)

input_smiles=COC(=O)N[C@H](C(=O)N[C@@H](Cc1ccc(-c2ccc(OC)nc2)cc1)[C@@H](O)C[C@@H](Cc1ccccc1F)C(=O)N[C@H]1[C@H](C)CCC[C@H]1O)C(C)(C)C assay_target="Human immunodeficiency virus 1" readout_value=9.52
input_smiles=COC(=O)N[C@H](C(=O)N[C@@H](Cc1ccccc1)[C@@H](O)C[C@@H](Cc1ccccc1)C(=O)N[C@H]1c2ccccc2OC[C@H]1O)C(C)(C)C assay_target="Human immunodeficiency virus 1" readout_value=8.22
input_smiles=COC(=O)N[C@H](C(=O)N[C@@H](Cc1ccc(-c2ccc(OC)nc2)cc1)[C@@H](O)C[C@@H](Cc1ccccc1F)C(=O)N[C@H]1c2ccsc2CC[C@H]1O)C(C)(C)C assay_target="Human immunodeficiency virus 1" readout_value=9.22

The observed pEC50 for COC(=O)N[C@H](C(=O)N[C@@H](Cc1ccc(-c2ccc(N(C)C)nc2)cc1)[C@@H](O)C[C@@H](Cc1ccccc1F)C(=O)N[C@H]1c2cc(F)cc(Cl)c2OC[C@H]1O)C(C)(C)C when tested with Human immunodeficiency virus 1 stands at 9.05

The observed pEC50 for COC(=O)N[C@H](C(=O)N[C@@H](Cc1ccc(-c2ccc(OC)nc2)cc1)[C@@H](O)C[C@@H](Cc1ccccc1F)C(=O)N[C@H]1c2cc(F)cc(C)c2OC[C@H]1O)C(C)(C)C when tested with Human immunodeficiency virus 1 stands at 8.48

* * *

assay: Drug metabolism in human liver microsomes at 1 uM after 15 mins; format: ADME, Microsome; details: read-out: Drug metabolism
observed property: metabolised at 0.25 h, 1 µM (%)

input_smiles=COC(=O)N[C@H](C(=O)N[C@@H](Cc1ccc(-c2ccc(N(C)C)nc2)cc1)[C@@H](O)C[C@@H](Cc1ccccc1F)C(=O)N[C@H]1c2cc(F)cc(Cl)c2OC[C@H]1O)C(C)(C)C readout_value=22

(I) COC(=O)N[C@H](C(=O)N[C@@H](Cc1ccc(-c2ccc(OC)nc2)cc1)[C@@H](O)C[C@@H](Cc1ccccc1Cl)C(=O)N[C@H]1[C@H](C)CCC[C@H]1O)C(C)(C)C
(II) COC(=O)N[C@H](C(=O)N[C@@H](Cc1ccc(-c2ccc(OC)nc2)cc1)[C@@H](O)C[C@@H](Cc1cccc(OC(F)(F)F)c1)C(=O)N[C@H]1c2cc(Cl)ccc2OC[C@H]1O)C(C)(C)C
Between the entries labeled I and II , whose measured metabolised at 0.25 h, 1 µM is lower? Which one? Tell me its label.
II
(II: 0%, I: 99%)

* * *

Examples of molecules with documented solubility follow.
test: Aqueous solubility of the compound in crystalline polymorphic form; assay type: physicochemical

// known answers, use as guide
input_smiles=COC(=O)N[C@H](C(=O)N[C@@H](Cc1ccc(-c2ccc(OC)nc2)cc1)[C@@H](O)C[C@@H](Cc1ccccc1F)C(=O)N[C@H]1[C@H](C)CCC[C@H]1O)C(C)(C)C readout_value="< 100 µg/mL"
input_smiles=COC(=O)N[C@H](C(=O)N[C@@H](Cc1ccc(-c2ccc(N(C)C)nc2)cc1)[C@@H](O)C[C@@H](Cc1ccccc1F)C(=O)N[C@H]1c2cc(F)cc(Cl)c2OC[C@H]1O)C(C)(C)C readout_value="< 100 µg/mL"

Here's the next entry for you.
The reported solubility of the molecule COC(=O)N[C@H](C(=O)N[C@@H](Cc1ccc(-c2ccc(OC)nc2)cc1)[C@@H](O)C[C@@H](Cc1ccccc1F)C(=O)N[C@H]1c2ccsc2CC[C@H]1O)C(C)(C)C was < 100 µg/mL

* * *

assay: Plasma clearance in rat at 2 mg/kg, iv; type: ADME, organism-based; design: dose 2 mg/kg, route intravenous
observed property: clearance (mL/min/kg)

// known answers, use as guide
input_smiles=COC(=O)N[C@H](C(=O)N[C@@H](Cc1ccc(-c2ccc(N(C)C)nc2)cc1)[C@@H](O)C[C@@H](Cc1ccccc1F)C(=O)N[C@H]1c2cc(F)cc(Cl)c2OC[C@H]1O)C(C)(C)C readout_value=13.3
input_smiles=COC(=O)N[C@H](C(=O)N[C@@H](Cc1ccccc1)[C@@H](O)C[C@@H](Cc1ccccc1)C(=O)N[C@H]1c2ccccc2OC[C@H]1O)C(C)(C)C readout_value=66.7
input_smiles=COC(=O)N[C@H](C(=O)N[C@@H](Cc1ccc(-c2ccc(OC)nc2)cc1)[C@@H](O)C[C@@H](Cc1ccccc1F)C(=O)N[C@H]1c2cc(F)cc(C)c2OC[C@H]1O)C(C)(C)C readout_value=26.7
input_smiles=COC(=O)N[C@H](C(=O)N[C@@H](Cc1ccc(-c2ccc(OC)nc2)cc1)[C@@H](O)C[C@@H](Cc1ccccc1F)C(=O)N[C@H]1[C@H](C)CC[C@H]1O)C(C)(C)C readout_value=78.3

(I) COC(=O)N[C@H](C(=O)N[C@@H](Cc1ccc(-c2ccc(OC)nc2)cc1)[C@@H](O)C[C@@H](Cc1ccccc1F)C(=O)N[C@H]1c2ccccc2OC[C@H]1O)C(C)(C)C
(II) COC(=O)N[C@H](C(=O)N[C@@H](Cc1ccc(-c2ccc(OC)nc2)cc1)[C@@H](O)C[C@@H](Cc1ccccc1F)C(=O)N[C@H]1c2cccc(Cl)c2OC[C@H]1O)C(C)(C)C
Between the entries labeled I and II , whose measured clearance is lower? Which one? Tell me its label.
II
(II: 65 mL/min/kg, I: 96.7 mL/min/kg)
